System: MOLT-4 cells
ASSAY: Inhibitory activity on MOLT4 cell proliferation by Cell Titer-Glo method
Type: cell-based
TEST_PARAMETERS: Homo sapiens, 72 hours incubation, read-out: IC50 concentration for inhibiting MOLT-4 cells
pIC50: −log10 of the molar value.
MEASURED_METRIC: pIC50

Asked: Hi! What's the reported pIC50 for CNc1nc(-c2cnc3ccccc3c2)nc2c1CCN(C(=O)c1ccc(COc3ccc(C#CCN4CCN(C(=O)CCCn5cc(COCCOCCNc6cccc7c6C(=O)N(C6CCC(=O)NC6=O)C7=O)nn5)CC4)cc3)cc1)C2 (centres unmarked) on MOLT-4 cells?
Given back: 4.00 to 4.30

Asked: Hi! What's the reported pIC50 for O=C1CCC(N2Cc3cc(CN4CC(N5CCN(CC#Cc6ccc(/C=C/c7ccc(C(=O)N8CCc9cnc(-c%10cnc%11ccccc%11c%10)nc9C8)cc7)cc6)CC5)C4)ccc3C2=O)C(=O)N1 (centres unmarked) on MOLT-4 cells?
Given back: 4.00 to 4.30

Asked: Hi! What's the reported pIC50 for O=C1CCC(N2C(=O)c3ccc(N4CCN(CC5CCN(CC#Cc6ccc(/C=C/c7ccc(C(=O)N8CCc9cnc(-c%10cnc%11ccccc%11c%10)nc9C8)cc7)cc6)CC5)CC4)cc3C2=O)C(=O)N1 (centres unmarked) on MOLT-4 cells?
Given back: 4.00 to 4.30

Asked: Hi! What's the reported pIC50 for CNc1nc(-c2cnc3ccccc3c2)nc2c1CCN(C(=O)c1ccc(/C=C/c3ccc(C#CCN4CCN(CCCC#Cc5cccc6c5CN(C5CCC(=O)NC5=O)C6=O)CC4)cc3)cc1)C2 (centres unmarked) [Compound D2-6] on MOLT-4 cells?
Given back: 3.70 to 4.00

# ---- query compound ----
Asked: Hi! What's the reported pIC50 for CNc1nc(-c2cnc3ccccc3c2)nc2c1CCN(C(=O)c1ccc(/C=C/c3ccc(C#CCN4CCN(CCCCCC(=O)N[C@H](C(=O)N5C[C@H](O)C[C@H]5C(=O)NCc5ccc(-c6scnc6C)cc5)C(C)(C)C)CC4)cc3)cc1)C2 on MOLT-4 cells?
Given back: < 3.70
